Test system: HMPV clinical isolate TN/1501/A1
measurement-description: HMPV antiviral assay Method-B (clinical isolate TN/1501/A1 in LLC-MK2 cells, ATP-Lite readout)
Assay type: cell-based, Human metapneumovirus (HMPV)
condition-notes: human metapneumovirus, LLC-MK2, 144 h, hMPV WT1501 (clinical isolate TN/1501/A1), 6 days
measured-metric: EC50

Observe how each entry below is paired with its result.
[
  {
    "compound": "Cc1cnc2c(OCC(F)F)cc(C(=O)NC[C@](O)(c3cc4c(c(-c5ccc(F)cc5)n3)OC[C@]4(C)C(N)=O)C3CC3)cc2c1 [Example 498]",
    "EC50": "< 500 nM"
  },
  {
    "compound": "Cc1cnc2c(OC(F)F)cc(C(=O)NC[C@](O)(c3cc4c(c(-c5ccc(F)c(Cl)c5)n3)OC[C@@]4(C(N)=O)C(F)F)C3CC3)cc2c1 [Example 1029]",
    "EC50": "< 500 nM"
  },
  {
    "compound": "COc1cc(C(=O)NC[C@@](O)(c2cc3c(c(-c4cccc(Cl)c4F)n2)OC[C@]3(C)C(N)=O)C(F)(F)F)cc2cn(C3CC3)nc12 [Example 921]",
    "EC50": "> 500 nM"
  },
  {
    "compound": "COc1cc(C(=O)NC[C@](O)(c2cc3c(c(-c4cc(F)c(F)c(Cl)c4)n2)OC[C@]3(C)C(N)=O)C(F)(F)F)cc2cc(Cl)c(C)nc12 [Example 784]",
    "EC50": "< 500 nM"
  },
  {
    "compound": "COc1cc(C(=O)NC[C@](O)(c2cc3c(c(-c4ccc(F)cc4)n2)OC[C@]3(CF)C(N)=O)C2CC2)cc2cn(C3CC3)nc12 [Example 1064]",
    "EC50": "< 500 nM"
  },
  {
    "compound": "Cc1cnc2c(Cl)cc(C(=O)NC[C@](O)(c3cc4c(c(-c5ccc(F)cc5)n3)OC[C@]4(C)C(N)=O)C3(F)CC3)cc2c1 [Example 738]",
    "EC50": "< 500 nM"
  },
  {
    "compound": "C[C@]1(C(N)=O)COc2c1cc([C@@](O)(CNC(=O)c1ccc3nn(C4CC4)cc3c1)C(F)(F)F)nc2-c1cc(F)c(F)cc1F [Example 1139]",
    "EC50": "< 500 nM"
  },
  {
    "compound": "COc1ccc(-c2nc([C@@](O)(CNC(=O)c3cc(OC)c4nn(C5CC5)cc4c3)C(F)(F)F)cc3c2OC[C@]3(C)C(N)=O)cc1Cl [Example 933]",
    "EC50": "> 500 nM"
  }
]

Data request: Using the record for COc1cc(C(=O)NC[C@](O)(c2cc3c(c(-c4ccc(F)cc4)n2)OC[C@]3(C)C(N)=O)C2CC2)cc2sc(C3CC3)nc12 [Example 741] , state its measured EC50.
Data returned: < 500 nM

Data request: Using the record for COc1cc(C(=O)NC[C@](O)(c2cc3c(c(-c4ccc5c(c4)OC(F)(F)O5)n2)OC[C@]3(C)C(N)=O)C2(F)CC2)cc2cn(C(F)F)nc12 [Example 720] , state its measured EC50.
Data returned: < 500 nM

Data request: Using the record for C[C@]1(C(N)=O)COc2c1cc([C@@](O)(CNC(=O)c1cc(OC3CC3)n3nc(C4CC4)cc3c1)C1CC1)nc2-c1ccc(F)c(Cl)c1 [Example 491] , state its measured EC50.
Data returned: < 500 nM

Data request: Using the record for COc1cc(C(=O)NC[C@](O)(c2cc3c(c(-c4ccc(F)cc4Cl)n2)OC[C@]3(C)C(N)=O)C(F)(F)F)cc2cc(C3CC3)nn12 [Example 510] , state its measured EC50.
Data returned: < 500 nM

Data request: Using the record for C[C@]1(C(N)=O)COc2c1cc([C@@](O)(CNC(=O)c1cc(Cl)c3nn(C4CC4)cc3c1)C(F)(F)F)nc2-c1cc(Cl)c(F)c(Cl)c1 [Example 673] , state its measured EC50.
Data returned: > 500 nM

Data request: Using the record for C[C@]1(C(N)=O)COc2c1cc([C@@](O)(CNC(=O)c1ccc3nn(C4CC4)cc3c1)C1CC1)nc2-c1c(F)ccc(Cl)c1F [Example 1167] , state its measured EC50.
Data returned: < 500 nM

Data request: Using the record for COc1cc(C(=O)NC[C@](O)(c2cc3c(c(-c4cccc(Br)c4F)n2)OC[C@]3(C)C(N)=O)C2CC2)cc2cn(C3(F)CC3)nc12 [Example 1087] , state its measured EC50.
Data returned: < 500 nM

Data request: Using the record for COc1ncc2cc(C(=O)NC[C@](O)(c3cc4c(c(-c5ccc(F)cc5)n3)OC[C@]4(C)C(N)=O)C3CC3)cc(OC)c2n1 [Example 1144] , state its measured EC50.
Data returned: > 500 nM

Data request: Using the record for COc1cc(C(=O)NC[C@](O)(c2cc3c(c(-c4ccc(F)cc4)n2)OC[C@]3(C(N)=O)C(F)F)C(F)(F)F)cc2cc(Cl)c(C)nc12 [Example 1000] , state its measured EC50.
Data returned: > 500 nM

Data request: Using the record for COc1cc(C(=O)NC[C@](O)(c2nc(-c3ccc4c(c3)OC(F)(F)O4)c3c(c2F)[C@@](C)(C(N)=O)CO3)C2CC2)cc2cn(C3CC3)nc12 [Example 857] , state its measured EC50.
Data returned: < 500 nM

Data request: Using the record for COc1cc(C(=O)NC[C@](O)(c2cc3c(c(-c4ccc(F)cc4)n2)OC[C@]3(CF)C(N)=O)C2CC2)cc2cc(Cl)c(C)nc12 [Example 1056] , state its measured EC50.
Data returned: < 500 nM

Data request: Using the record for Cc1cnc2c(OC(F)F)cc(C(=O)NC[C@](O)(c3cc4c(c(-c5cc(F)c(F)cc5F)n3)OC[C@]4(C)C(N)=O)C(F)(F)F)cc2c1 [Example 1142] , state its measured EC50.
Data returned: < 500 nM

Data request: Using the record for COc1cc(C(=O)NC[C@](O)(c2cc3c(c(-c4ccc(F)c(Cl)c4F)n2)OC[C@]3(C)C(N)=O)C2CC2)cc2cc(C)c(Cl)nc12 [Example 1072] , state its measured EC50.
Data returned: < 500 nM

Data request: Using the record for Cc1cnc2c(Cl)cc(C(=O)NC[C@](O)(c3cc4c(c(-c5ccc(F)c(F)c5F)n3)OC[C@]4(C)C(N)=O)C3CC3)cc2c1 [Example 531] , state its measured EC50.
Data returned: < 500 nM

Data request: Using the record for COc1cc(C(=O)NC[C@](O)(c2cc3c(c(-c4cccs4)n2)OC[C@]3(C)C(N)=O)C(F)(F)F)cc2cn(C3CC3)nc12 [Example 968] , state its measured EC50.
Data returned: > 500 nM

Data request: Using the record for C[C@]1(C(N)=O)COc2c1cc([C@@](O)(CNC(=O)c1ccc3nn(C4CC4)cc3c1)C1CC1)nc2-c1ccc(F)c(Br)c1F [Example 1101] , state its measured EC50.
Data returned: < 500 nM

The measured values listed here are drawn from patent US12612412B2.
